- Tested on: zebrafish Peroxisome Proliferator-activated Receptor gamma (PPARg), gene 557037
- experiment-notes: ATG_zfPPARg_XSP2: Attagene TRANS-FACTORIAL Multi-Species (XSP2) HepG2 Assay for zebrafish Peroxisome Proliferator-activated Receptor gamma (PPARg) (AID 2283833);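 further: reporter mRNA from a zebrafish PPARg GAL4 chimera measured by RT-PCR and capillary electrophoresis; actives increase reporter signal over DMSO so AC50 reflects activation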
Records with an inconclusive call do not appear. Activity calls are given as the source filed them. How the source made its calls: active means hit-call score of the fitted dose curve at least 0.9, where 1 is the maximum; inconclusive means response in the unintended direction; inactive means score below 0.9.
Entry note: the call must match one of true (active), false (inactive)

CCN(CC)C(=O)C(C)Oc1cccc2ccccc12 (stereo unspecified)    false
CC(C)NC(=O)N1CC(=O)N(c2cc(Cl)cc(Cl)c2)C1=O    false
C=C(C)CN(CC)c1c([N+](=O)[O-])cc(C(F)(F)F)cc1[N+](=O)[O-]    false
COP(=S)(OC)SCn1nnc2ccccc2c1=O    false

Record lookup: outcome of this test for CC1(C)CCC(=Cc2ccc(Cl)cc2)C1(O)Cn1cncn1 (stereo unspecified) ?
false

Record lookup: outcome of this test for CC1(C)C(C=C(Cl)Cl)C1C(=O)OC(C#N)c1cccc(Oc2ccccc2)c1 (stereo unspecified) ?
true

----------
- Read-out: Protein phosphatase 2A (PPP2R4), PTPA (gene 5524)
- experiment-notes: LTEA_HepaRG_PPP2R4: Life Technologies and Expression Analysis (LTEA) Assay for Protein phosphatase 2A (PPP2R4) using HepaRG (AID 2283522)
- measurement-parameters: mRNA level, 48 h; actives raise or lower the signal
Calls of active or inactive are those of the source. How the source made its calls: active means hit-call score of the fitted dose curve at least 0.9, where 1 is the maximum; inactive means score below 0.9.
experimental-endpoint: outcome

CCSC(=O)N1CCCCCC1    inactive
O=C(Nc1ccccc1-c1ccc(Cl)cc1)c1cccnc1Cl    inactive
CNC(=O)N(C)c1nnc(C(C)(C)C)s1    inactive
COC(=O)c1c(C(F)F)nc(C(F)(F)F)c(C2=NCCS2)c1CC(C)C    inactive
CCN(CC)C(=O)C(C)Oc1cccc2ccccc12 (stereo unspecified)    inactive

Field: next compound
According to the records, this compound CCOC(=O)C(C)OC(=O)c1cc(Oc2ccc(C(F)(F)F)cc2Cl)ccc1[N+](=O)[O-] (stereo unspecified) displays outcome of inactive

----------
- tgt: AR (gene 367) (UniProt P10275)
- Sequence (P10275 whole entry, looked up): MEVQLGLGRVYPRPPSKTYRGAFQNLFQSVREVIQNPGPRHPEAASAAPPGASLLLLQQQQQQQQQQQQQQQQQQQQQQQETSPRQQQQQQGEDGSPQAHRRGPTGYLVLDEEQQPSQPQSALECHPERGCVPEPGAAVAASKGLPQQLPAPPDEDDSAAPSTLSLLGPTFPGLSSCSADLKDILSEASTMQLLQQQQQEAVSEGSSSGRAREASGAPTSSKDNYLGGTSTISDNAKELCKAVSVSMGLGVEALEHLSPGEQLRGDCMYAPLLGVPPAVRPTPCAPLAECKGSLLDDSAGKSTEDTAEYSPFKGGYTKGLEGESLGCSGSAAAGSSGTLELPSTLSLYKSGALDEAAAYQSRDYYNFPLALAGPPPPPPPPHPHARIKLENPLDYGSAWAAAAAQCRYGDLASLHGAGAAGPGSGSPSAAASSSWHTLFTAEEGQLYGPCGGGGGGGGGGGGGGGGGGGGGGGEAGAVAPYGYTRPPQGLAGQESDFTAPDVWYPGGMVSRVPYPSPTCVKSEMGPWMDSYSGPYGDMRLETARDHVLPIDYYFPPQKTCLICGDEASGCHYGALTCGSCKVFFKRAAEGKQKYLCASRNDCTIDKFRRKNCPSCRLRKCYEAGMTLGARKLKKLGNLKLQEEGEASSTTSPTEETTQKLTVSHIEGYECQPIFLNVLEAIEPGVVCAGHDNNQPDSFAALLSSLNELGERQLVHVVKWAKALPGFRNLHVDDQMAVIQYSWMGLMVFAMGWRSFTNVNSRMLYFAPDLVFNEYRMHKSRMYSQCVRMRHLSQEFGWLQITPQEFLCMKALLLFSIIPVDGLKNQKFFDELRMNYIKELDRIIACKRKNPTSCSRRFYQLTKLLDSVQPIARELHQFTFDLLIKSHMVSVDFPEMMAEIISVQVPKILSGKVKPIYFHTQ
- experiment-notes: ACEA_AR_agonist_80hr: ACEA Biosciences xCELLigence Real-Time Cell Analysis on Androgen Receptor Agonism for Proliferation (AID 2283783);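 further: hits increase impedance growth signal above DMSO baseline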
Records with an inconclusive call do not appear. Active and inactive are the calls of the source. How the source made its calls: active means hit-call score of the fitted dose curve at least 0.9, where 1 is the maximum; inconclusive means response in the unintended direction; inactive means score below 0.9.
Entry note: the call must match one of true for active, false for inactive

CC1(C)CCC(=Cc2ccc(Cl)cc2)C1(O)Cn1cncn1 (centres undefined)    false
Nc1c(Cl)c(F)nc(OCC(=O)O)c1Cl    false
CCCCOCN(C(=O)CCl)c1c(CC)cccc1CC    true

Now look at this one.
Record lookup: outcome of this test for CCCCC(O)(Cn1cncn1)c1ccc(Cl)cc1Cl (centres undefined) ?
false

----------
- experiment-notes: CCTE_Mundy_HCI_iCellGluta_NOG_NeuriteCount: CCTE's Neurite Outgrowth Assay in iCellGluta cells for Neurite Count, Mundy Lab (AID 2284342);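 further: chemical exposure about 48 hours starting 2 hours after plating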
Results filed as inconclusive are left out. Calls of active or inactive are those of the source. The calls were made as follows: active = hit-call score of the fitted dose curve at least 0.9, where 1 is the maximum; inconclusive = response in the unintended direction; inactive = score below 0.9.
Entry note: the call must match one of label 1 (active), label 0 (inactive)

Solved cases below.
Cc1c(COC(=O)[C@@H]2[C@H](/C=C(\Cl)C(F)(F)F)C2(C)C)cccc1-c1ccccc1    label 1
CS(=O)(=O)c1ccc(C(=O)C2C(=O)CCCC2=O)c([N+](=O)[O-])c1    label 0
CN/C(=N\[N+](=O)[O-])NCc1cnc(Cl)s1    label 0
C=C(C)CN(CC)c1c([N+](=O)[O-])cc(C(F)(F)F)cc1[N+](=O)[O-]    label 1

Record lookup: outcome of this test for `N#CN=C1SCCN1Cc1ccc(Cl)nc1` ?
label 0
